- Tested on: MS2 coat protein
- measurement_description: apparent KD of MS2 coat protein; higher = weaker reporter binding
- conditions_used: Eterna round: R107; input ligand: theophylline 2 mM
metric_name: apparent KD of MS2 coat protein (nM)
# value in nM; strip the unit string

primary_sequence	measurement_target	unit_text	result
AAUGGGCGAGUAGAGCAUAAUUUCCACUCCCGAGGACCGGUACGGCCGCCACUCGUUCGCUCACAUGAGGAUCACCCAUGUGGUC [theeternabot_exclusion_MS2_Trp_A_17]	MS2 coat protein	nM	40.3
UCGCUCGCCGCAAGGCGAGCGAGUUGCGAUACCAGCCCGGAAACGGGCCCUUGGCAGCGCACAUGAGGAUCACCCAUGUCAUGUU [#1 Exclusion - Theophylline A Attempt #4 (HarryS)]	MS2 coat protein	nM	30.4
AUUUGGCGUAGUGUUGCUCGUGGGAUAAAACGAGGACCGGUACGGCCGCCACUCGAUGAUUAACAUGAGGAUCACCCAUGUAAAU [theeternabot_exclusion_MS2_Trp_A_22]	MS2 coat protein	nM	32.2
UUGGGUUUGCGAAGGAGCGGGAAAUAUAUAUAUAUAAUCCUAACAUGAGGAUCACCCAUGUCCCAGGUAGGUCGCGCAGGUUUGG [12.L]	MS2 coat protein	nM	73.2

Please examine the following record next.
API: value(readout=apparent KD of MS2 coat protein, system=MS2 coat protein) for record AAUACCGGUCCUCGAAGCAUGGGUGAUCAACGAGGACCGGUACGGCCGCCACUCGAUAACAUGAGGAUCACCCAUGUAAUAAUAA [|T'-M'-Trp-Ms2|_Design5]
552

----------
- Test system: MS2 coat protein
- measurement_description: apparent KD of MS2 coat protein; designed switch direction (-1 OFF switch, 1 ON switch): -1; higher = weaker reporter binding
- conditions_used: input ligand: none
metric_name: apparent KD of MS2 coat protein (nM)
# value in nM; strip the unit string

Example entries begin here.
primary_sequence	apparent KD of MS2 coat protein, nM
AUAAAUCAUGUAGGAUAUGCGUGGCGAAGCUAUGCAGAAGGACAUGAGGAUCACCCAUGUGCUUGCGUCUGCGUACAGAUGCUA [Mat - Exclusion NG 1 - Mod of JL - D5] (Eterna round: R96, puzzle: Exclusion NG 1)	51.7
GGGUGACAUGAGGAUCACCCAUGUCAGGAUAUGGGCCCGGGCCCGAAAGGGUUUGGGCCCAGAAGGGACUGCCC [-44.5, -43.5 kcal, 22%A (-3 GC series)] (Eterna round: R97, puzzle: Exclusion 1)	50.3
UUAUUCAGAGGAUAUGCGCAUAGAUAAGACUUUUUUUCUUAACAUGAGGAUCACCCAUGUAGAAGGCUGUAAUA [Ex2 #57] (Eterna round: R97, puzzle: Exclusion 2)	18.4

API: value(readout=apparent KD of MS2 coat protein, system=MS2 coat protein) for record GUUGUUUAUGUAGGAUAUGCCUGGCGUGCCUAAGCAGAAGGACAUGAGGAUCACCCAUGUAUUGCGGUCUGCGUUCAGAUCGCU [salish99_ExNG1_r4_019] (Eterna round: R96, puzzle: Exclusion NG 1)
23.8

----------
- Tested on: MS2 coat protein
- measurement_description: apparent KD of MS2 coat protein; designed switch direction (-1 OFF switch, 1 ON switch): -1; higher = weaker reporter binding
- conditions_used: input ligand: FMN 200 uM
Label scheme for apparent KD of MS2 coat protein: lower than 50 nM is 0 (no), 50 nM and above is 1 (yes).

Known results for sequences:
primary_sequence	qualitative_label
UAUUCACAUGAGGAUCACCCAUGUCAGGAUAUAUUCGAUAUAUGGAAACAUAUAUCGAAUAGAAGGGACUAGCG [Jieuxxlusion 10 - Jieux - Exclusion 1] (Eterna round: R97, puzzle: Exclusion 1)	1 (yes)
CCGCUGCAAGGAUAUACUUGCGGUGGUGUUCGAGUUCUUUUACUUGAGGAUCACCCAAGUAGAAGGUGCAAAAC [jl-ex2.4.54 ViennaUCT mod] (Eterna round: R97, puzzle: Exclusion 2)	0 (no)
CCAAGCUUAUUCAUUAACCACAUGAGGAUCACCCAUGUAUAGGCAAUUAUGACUGGGCUCUGUGGUGCUCGUCUUCU [mod-malcom] (Eterna round: R97, puzzle: Sensor, turn-off variant 1)	1 (yes)
CUUGCACGACGAGGAUAUCGUAAACAUGAGGAUCACCCAUGUAGGUGGCGUCGUCCUCUAUCUUGCGAGAAGGCGUAAAAUUAA [Begeeda] (Eterna round: R96, puzzle: Exclusion NG 2)	1 (yes)

--- query ---
In plain terms: is recorded apparent KD of MS2 coat protein at least 50 nM for ACAUGUAUUGCAGGAUAUGGGACACAUGAGGAUCACCCAUGUGACUACAUGUCAUGCCACGGGUCUCAGAAGGGUAUGUACAUG [Ex NG2 #41] (Eterna round: R96, puzzle: Exclusion NG 2) ?
0 (no)

----------
- Tested on: MS2 coat protein
- measurement_description: apparent KD of MS2 coat protein; designed switch direction (-1 OFF switch, 1 ON switch): -1; higher = weaker reporter binding
- conditions_used: input ligand: FMN 200 uM
metric_name: apparent KD of MS2 coat protein (nM)
# value in nM; strip the unit string

Example entries begin here.
primary_sequence	result
AACUCUGAGAAGGAUAUGGUACGGGAAAUGGUACCAGAAGGUUUCACAUGAGGAUCACCCAUGUCGAAUAGUGA [EX6 #68] (Eterna round: R97, puzzle: Exclusion 6)	28.8
AUAAAGUGAGGAUAUCCAAUAUAUGACAUGAGGAUCACCCAUGUUUCCACUCGUACCUCCGGAGAAGGCACAAAAU [Ex5 #61] (Eterna round: R97, puzzle: Exclusion 5)	24.5
CACCUGAAGAGAGGAUAUCAUACAUGAGGAUCACCCAUGUAAUAAAUGAGAAUUUCGAAUGUAAUUGAGAAGGCUCAAUAAGGC [Ostricism 95 - Jieux - Exclusion NG 2] (Eterna round: R96, puzzle: Exclusion NG 2)	82.9
AAUAACAAGCCGAUCCUAAACAUGAGGAUCACCCAUGUGCUCGUCUUGUAAAGUACUAUCACGAAAGUGAUAGUACA (Eterna round: R97, puzzle: Sensor, turn-off variant 1)	24.5
UAUCCACAUGAGGAUCACCCAUGUCAGGAUAUGCACUAUGGGCCAAGUGGUCCAAGGAGCAGAAGGGACGAGAG [Eternabot (L2) Solution 25] (Eterna round: R97, puzzle: Exclusion 1)	28.9

What value of apparent KD of MS2 coat protein has been recorded for this entry: AUAAUACAUGUAGGAUAUGCGUGGCGAAGCUAUGCAGAAGGACAUGAGGAUCACCCAUGUGCUAGCGUCUGCGUACAGAUGCUA [JL eng1 1.35 mod 3] (Eterna round: R96, puzzle: Exclusion NG 1)
310

Try this sequence too: UAUUAAACAAGCAGGUCCCACAUGAGGAUCACCCAUGUGCUCGUCUUAUAAGGUACUGUGACGAAAGUCACGGUACC [Elimod 16 - Jieux - Sensor, turn-off variant 1] (Eterna round: R97, puzzle: Sensor, turn-off variant 1)
37.2

Try this sequence too: GCCGAUUAAGUGAGGAUAUACCUAUGGAUACAUAGGUAGAAGGCACAUGAGGAUCACCCAUGUAUCCUAUCGGC [Eli bmx4 4.27] (Eterna round: R97, puzzle: Brourd's mod of Exclusion 4)
517

Try this sequence too: AUGCUCCGUGUAGGAUAUCGCCGUAUUACUCGGCGAGAAGGACAUGAGGAUCACCCAUGUAUGUUAUUAUCACGUGUGGCGCGC [Design 46] (Eterna round: R96, puzzle: Exclusion NG 1)
35.2

----------
- Tested on: K4 kissing-loop RNA reporter;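 also: bound reporter read as fluorescence of individual clusters on recovered sequencing chips by microscopy, with normalized cluster intensities fitted with a binding model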
- measurement_description: apparent KD of K4 kissing-loop reporter; higher = weaker reporter binding
- conditions_used: Eterna round: R107; input ligand: none
metric_name: apparent KD of K4 kissing-loop reporter
# number then unit; no other words

Example entries begin here.
primary_sequence	apparent KD of K4 kissing-loop reporter
UGACUGGACUGAAGGAGCGCUAAACUCCUAGUGAUGUUAGGAUAACGAGACAAAGUCUCGAAGCAGGUAGGUCGCAGUCUAGUCU	117 nM
AUAGAAAAGUGGCACCCUCACUAAAACAGUCGAGGACCGGUACGGCCGCCACUCGCGCGCUUUAGUGAUGUUAAAGCUAUGCAAA	380 nM
CCAACAACGAGUGAUGUUCGUUGAUCAGAAGGAGCGUCAAUAAUGACAGGUAGGUCGCUGAUAAUUGGAAAUAGGGCAAUAGCUU [Same State Arginine A GF12]	115 nM
AAAAUAAGCCAGUGAUGUUGGUAUACAGAUACCAGCGACGAAAGUCGCCCUUGGCAGCUGUGGACGUACAAAAUAAGUACGUCCU	417 nM
UUCGGAUAAGUCCUUCCGAAGAAGCCGGAAGGAGCGACUCAAUAGUCAGGUAGGUCGCCGGCAAGCGUAGUGAUGUUAUGCUCAC [Arg A SS t6]	882 nM

What value of apparent KD of K4 kissing-loop reporter has been recorded for this entry: AAGCCAAAGAUUGCUGCGGGUUCCAGAGAUACCAGCCGUAUUGAAGGCCCUUGGCAGCUCGAGUGAUGUUCGAGCCGUCUCUGGC [Lexerati]
117 nM

Try this sequence too: AAUCAAUACAGAAGGAGCGUGACAAUUACUAUUGAAUUAGGUGCUAGUGAUGUUAGCAUUACACAGGUAGGUCGCUGUACAUUUA [JR_SSArginiB_Sub011]
87.5 nM

Try this sequence too: UGACUGGACUGAAGGAGCGCUUAACUCCUAGUGAUGUUAGGACAACGAGACAAAGUCUCGAAGCAGGUAGGUCGCAGUCUAGUCU
204 nM

Try this sequence too: AGCUCAGAGUGACUCGAUAAGAGUCACAAACGAGGACCGGUACGGCCGCCACUCGAAAUAACGAGAGUGAUGUUCUUGCUGAGCA [FiskerMod 7 - Jieux - Same State Tryptophan A]
976 nM

Try this sequence too: CGGCGCGGCGCGGCCGCCACUGCGCCUGGGCGCUCGCCGAGUGAUGUUCGUCGGCGGUCGGGUGGCAGGACCGGGUGCCGGCCCG [BDazzled - #20 SS Tryptophan B]
217 nM

Try this sequence too: UCCUAGGCUCGAAAGAGCCUAGGAUUAACUCAGGAUAUCCGGAAACGGAGAAGGGAGUAACUAGUGAUGUUAGGGAUUCCCUAUU
109 nM

Try this sequence too: CCAUCGCUAUUCGAUACCAGCUACUUAGUGAUGUUAAGUUAAAAUCAAUUGUAGAUUGAAAGCCCUUGGCAGCGAAUAGUGAUGG [Theophylline B K4 21]
139 nM

Try this sequence too: GGAUUGCCAGUGAUGUUGGCAUAAACUGAAGGAGCGCGUGAAAACGCAGGUAGGUCGCAGAACCUUGCCAACUGAUCGAAAGAUC [Ex Arginine A K4 29]
121 nM
